Recorded values, source patent US20100249223A1.

The following molecules are shown together with reported pEC50 values.
Biological target: TRPV1 channel (Rattus norvegicus)
Assay: Intracellular Ca2+ elevation in HEK-293 cells over-expressing rat TRPV1
Schema: pEC50 number; meaning minus log10 of the concentration expressed in molar units.

{"columns": ["molecule", "pEC50"],
 "data": [
  ["C=C(C)[C@@H]1CCC(C)=C[C@H]1c1c(O)cc(CCCCC)cc1O", 6.15],
  ["CCCCCc1cc(O)c(C/C=C(\\C)CCC=C(C)C)c(O)c1", 6.00],
  ["C=C(C)[C@@H]1CCC(C)=C[C@H]1c1c(O)cc(CCC)cc1O", 5.85]
]}

Now for the molecule whose pEC50 we want.
Let me check: CCCCCc1cc(O)c2c(c1)OC(C)(CCC=C(C)C)C=C2 (stereo not shown) , system TRPV1 channel (Rattus norvegicus), measured pEC50 is 4.62

* * *

Biological target: TRPA1 channel (Rattus norvegicus)
Construct: expressed in transfected cells
Assay: Intracellular Ca2+ elevation in HEK-293 cells over-expressing rat TRPA1
Type: cell-based
Settings: TRPA1; summary of Table 1; read-out: EC50 values (range given)
Listing: EC50 of selected molecules

{"columns": ["molecule", "measurement-type", "observed-result"],
 "data": [
  ["CCCCCc1cc(O)c2c(c1)OC(C)(CCC=C(C)C)C=C2 (centres unmarked) [CBC, cannabichromene]", "EC50", "60 to 100 nM"]
]}

Field: next molecule
Short answer for C=C(C)[C@@H]1CCC(C)=C[C@H]1c1c(O)cc(CCCCC)cc1O [CBD, cannabidiol] : EC50 was 60 to 100 nM

* * *

Biological target: TRPA1 channel (Rattus norvegicus)
Construct: expressed in transfected cells
Assay: Intracellular Ca2+ elevation in HEK-293 cells over-expressing rat TRPA1
Assay type: cell-based
Settings: HEK293; TRPA1-HEK-293 cells; relative to mustard oil 100 μM; read-out: Maximal response (% of mustard oil 100 μM)
measurement-type: Emax (%)
State just the number; it will be interpreted in %.

{"columns": ["molecule", "uom", "Emax"],
 "data": [
  ["O=CC=Cc1ccccc1 [Cinnamaldehyde, cinnamaldehyde, reference compound]", "%", 99.1],
  ["CCCCCc1cc(O)c2c(c1)OC(C)(C)[C@@H]1CCC(C)=C[C@@H]21 [THC, tetrahydrocannabinol]", "%", 117],
  ["CCCCCc1cc(O)c2c(c1)OC(C)(CCC=C(C)C)C=C2 (centres unmarked)", "%", 118],
  ["C=C(C)[C@@H]1CCC(C)=C[C@H]1c1c(O)cc(CCCCC)c(C(=O)O)c1O", "%", 48.2]
]}

Kindly review the next molecule as well.
Please fill in: Emax reported for C=C(C)[C@@H]1CCC(C)=C[C@H]1c1c(O)cc(CCCCC)cc1O = 86.9

* * *

Target: TRPV1 channel (Rattus norvegicus, UniProt O35433)
Construct: expressed in transfected cells
Sequence (O35433 whole entry): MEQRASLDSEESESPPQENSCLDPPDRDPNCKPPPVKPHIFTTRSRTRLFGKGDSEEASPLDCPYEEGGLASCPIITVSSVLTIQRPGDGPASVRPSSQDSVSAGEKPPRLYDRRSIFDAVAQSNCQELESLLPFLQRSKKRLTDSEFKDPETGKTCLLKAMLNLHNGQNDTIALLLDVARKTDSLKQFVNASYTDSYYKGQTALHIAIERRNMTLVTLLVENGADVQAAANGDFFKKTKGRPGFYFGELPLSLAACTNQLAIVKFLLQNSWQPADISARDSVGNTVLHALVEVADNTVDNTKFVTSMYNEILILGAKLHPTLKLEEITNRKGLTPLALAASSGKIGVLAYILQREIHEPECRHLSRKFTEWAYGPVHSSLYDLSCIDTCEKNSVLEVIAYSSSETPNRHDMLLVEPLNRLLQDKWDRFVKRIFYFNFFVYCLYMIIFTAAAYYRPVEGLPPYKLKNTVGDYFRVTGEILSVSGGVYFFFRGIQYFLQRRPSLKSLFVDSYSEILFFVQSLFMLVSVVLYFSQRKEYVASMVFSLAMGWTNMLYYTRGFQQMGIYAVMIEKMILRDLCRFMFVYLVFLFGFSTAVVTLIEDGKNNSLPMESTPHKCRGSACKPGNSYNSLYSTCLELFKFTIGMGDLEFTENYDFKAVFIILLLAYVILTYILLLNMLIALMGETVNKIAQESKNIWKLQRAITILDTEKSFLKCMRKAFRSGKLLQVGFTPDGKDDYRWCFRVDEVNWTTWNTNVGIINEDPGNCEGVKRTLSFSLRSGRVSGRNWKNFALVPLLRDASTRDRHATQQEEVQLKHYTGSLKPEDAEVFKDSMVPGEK
Test: Intracellular Ca2+ elevation in HEK-293 cells over-expressing rat TRPV1
Assay type: cell-based
Settings: HEK293, read-out: Maximal response (% ionomycin)
measurement-type: Emax
Answer as a quantity: numeral, then unit.

{"columns": ["molecule", "observed-result"],
 "data": [
  ["COc1cc(CNC(=O)CCCC/C=C/C(C)C)ccc1O [Capsaicin, reference compound]", "68.6%"]
]}

Recorded result, C=C(C)[C@@H]1CCC(C)=C[C@H]1c1c(O)cc(CCC)cc1O , Emax: 19.8%

Briefly, Emax measured for CCCCCc1cc(O)c2c(c1)OC(C)(CCC=C(C)C)C=C2 (centres unmarked) : 9%

CCCCCc1cc(O)c(C/C=C(\C)CCC=C(C)C)c(O)c1 yielded Emax of 54.4%

Note to self: Emax recorded for C=C(C)[C@@H]1CCC(C)=C[C@H]1c1c(O)cc(CCCCC)cc1O was 50%

* * *

Biological target: TRPA1 channel (Rattus norvegicus, UniProt Q6RI86)
Construct: expressed in transfected cells
Sequence (Q6RI86 whole entry): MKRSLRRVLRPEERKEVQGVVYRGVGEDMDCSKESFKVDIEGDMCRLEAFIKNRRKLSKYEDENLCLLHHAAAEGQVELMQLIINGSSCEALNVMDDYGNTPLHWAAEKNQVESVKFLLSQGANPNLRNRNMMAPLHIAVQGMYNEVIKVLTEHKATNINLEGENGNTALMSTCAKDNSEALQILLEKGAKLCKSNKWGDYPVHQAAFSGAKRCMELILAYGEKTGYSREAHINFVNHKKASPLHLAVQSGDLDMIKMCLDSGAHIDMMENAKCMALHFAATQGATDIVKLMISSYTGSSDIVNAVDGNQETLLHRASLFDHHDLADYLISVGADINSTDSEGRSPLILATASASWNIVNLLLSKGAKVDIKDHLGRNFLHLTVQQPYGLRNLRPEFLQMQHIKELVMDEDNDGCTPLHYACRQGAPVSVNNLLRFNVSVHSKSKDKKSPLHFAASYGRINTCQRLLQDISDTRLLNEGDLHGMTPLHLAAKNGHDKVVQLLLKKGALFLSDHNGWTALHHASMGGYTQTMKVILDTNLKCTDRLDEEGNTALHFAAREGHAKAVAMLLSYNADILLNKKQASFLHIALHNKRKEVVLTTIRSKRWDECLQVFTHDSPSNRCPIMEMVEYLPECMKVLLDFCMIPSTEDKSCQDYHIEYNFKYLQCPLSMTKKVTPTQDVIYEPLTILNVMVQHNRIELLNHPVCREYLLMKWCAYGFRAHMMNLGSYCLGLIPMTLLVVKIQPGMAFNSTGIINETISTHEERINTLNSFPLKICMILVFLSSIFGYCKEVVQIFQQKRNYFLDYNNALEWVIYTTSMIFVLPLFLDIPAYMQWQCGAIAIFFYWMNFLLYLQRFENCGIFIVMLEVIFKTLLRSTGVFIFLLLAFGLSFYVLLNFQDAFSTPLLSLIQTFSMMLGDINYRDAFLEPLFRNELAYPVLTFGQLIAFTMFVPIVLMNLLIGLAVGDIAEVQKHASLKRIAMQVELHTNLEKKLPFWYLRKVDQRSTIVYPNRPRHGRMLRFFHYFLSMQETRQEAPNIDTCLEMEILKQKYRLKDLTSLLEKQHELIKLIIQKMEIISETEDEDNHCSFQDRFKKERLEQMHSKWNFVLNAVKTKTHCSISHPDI
Assay: Intracellular Ca2+ elevation in HEK-293 cells over-expressing rat TRPA1
Assay type: cell-based
Conditions: TRPA1-HEK-293 cells, Fluo-4; read-out: -logEC50% (M) for the elevation of [Ca2+]i (converted)
A collection of molecules and their measured log10 of EC50
Transform log10 | Measure EC50 | Unit M

Use the examples below as a reference point.
{"columns": ["molecule", "measured-on", "observed-result"],
 "data": [
  ["C=C(C)[C@@H]1CCC(C)=C[C@H]1c1c(O)cc(CCCCC)cc1O", "TRPA1 channel (Rattus norvegicus, UniProt Q6RI86)", -7.07],
  ["O=CC=Cc1ccccc1 [Cinnamaldehyde, cinnamaldehyde, reference compound]", "TRPA1 channel (Rattus norvegicus, UniProt Q6RI86)", -4.89]
]}

Summary for this molecule, CCCCCc1cc(O)c2c(c1)OC(C)(C)[C@@H]1CCC(C)=C[C@@H]21 [THC, tetrahydrocannabinol] : log10 of EC50 is -6.73

For record CCCCCc1cc(O)c2c(c1)OC(C)(CCC=C(C)C)C=C2 (centres unmarked) the listed log10 of EC50 is -7.48

The reported value for C=C(C)[C@@H]1CCC(C)=C[C@H]1c1c(O)cc(CCCCC)c(C(=O)O)c1O in terms of log10 of EC50 is -6.09
